Cited source: PubChem BioAssay (NCATS)

Biological target: Cytochrome P450 2C9 (Homo sapiens) (UniProt P11712)
Sequence (P11712 whole entry, looked up): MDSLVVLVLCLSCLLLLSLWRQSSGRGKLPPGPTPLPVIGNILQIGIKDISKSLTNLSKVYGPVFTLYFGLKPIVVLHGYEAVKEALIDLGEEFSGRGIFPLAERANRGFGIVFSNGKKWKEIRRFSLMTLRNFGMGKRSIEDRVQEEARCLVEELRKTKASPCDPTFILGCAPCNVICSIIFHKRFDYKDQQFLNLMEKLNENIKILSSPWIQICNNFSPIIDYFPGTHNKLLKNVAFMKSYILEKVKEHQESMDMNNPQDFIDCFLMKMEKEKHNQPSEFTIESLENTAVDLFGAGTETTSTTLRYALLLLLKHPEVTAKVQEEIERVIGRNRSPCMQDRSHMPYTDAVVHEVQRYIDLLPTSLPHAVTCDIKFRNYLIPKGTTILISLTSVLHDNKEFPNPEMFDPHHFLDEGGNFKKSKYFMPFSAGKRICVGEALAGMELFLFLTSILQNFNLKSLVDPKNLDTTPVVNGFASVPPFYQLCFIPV
Assay: Cytochrome P450 family 2 subfamily C member 9 (CYP2C9) small molecule antagonists: luciferase biochemical (cell-free) qHTS assay (AID 1645842); note: nearly all actives have a fitted effect of over 55% in size; note: potency is the fitted concentration of half-maximal effect
Settings: P450-Glo CYP2C9 enzyme assay, luciferin luminescence; series mostly up to 57.4 µM
Results filed as inconclusive are left out. Active and inactive are the calls of the source. Calls come from the whole dose curve; as a rule, active = well fitted inhibition curve with a large enough effect in the repeat runs; inconclusive = weak or mixed curves; inactive = no such curve, though single readings can be large or run the other way.
readout_kind: Potency

O=C1CC2(CCCC2)CC(=O)N1CCCCN1CCN(c2ncccn2)CC1: inactive
Cc1cc(C)c(/C=C2\C(=O)Nc3ccccc32)[nH]1: 9.77 µM (active)
Fc1ccc(C(c2ccc(F)cc2)N2CCN(C/C=C/c3ccccc3)CC2)cc1: 7.76 µM (active)
NC(N)=N/N=C/c1c(Cl)cccc1Cl: inactive

Now for the molecule whose Potency we want.
Field request: Potency | item: `Cc1nnc(SCC2=C(C(=O)O)N3C(=O)[C@@H](NC(=O)Cn4cnnn4)[C@H]3SC2)s1` inactive
